Taken from PubChem BioAssay AID1963439.

// values below are reported viability, T/C
test system: NCI-H196 complex spheroids with HUVEC/MSC, growth % T/C; assay: Anticancer human tumor NCI-H196 cell line growth inhibition [Asc]; conditions: second compound 1 µM; first compound 0.00316 µM; stronger effect = lower value;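 note: spheroids exposed to compound for 7 days before measurement; 100% = DMSO vehicle control wells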
Quick note: give the figure in %, leave out the unit.

Molecule | Quantity unit | Test value
Cn1ncnc1[C@H]1c2n[nH]c(=O)c3cc(F)cc(c23)N[C@@H]1c1ccc(F)cc1 + Cc1c(S(C)(=O)=O)c(-c2cc(F)cc(N3CCN(c4ccc(NS(=O)(=O)c5ccc(NC(CCN6CCC(C(=O)OCCCP(=O)(O)O)CC6)CSc6ccccc6)c(S(=O)(=O)C(F)(F)F)c5)cc4)CC3)c2)c(-c2ccc(Cl)cc2)n1C(C)C | % | 94.5
CCN1CCN(Cc2ccc(Nc3ncc(F)c(-c4cc(F)c5nc(C)n(C(C)C)c5c4)n3)nc2)CC1 + CNC(C)C(=O)NC1CN(S(=O)(=O)c2cccc(S(=O)(=O)N3CCC4CCC(C(=O)NC(c5ccccc5)c5ccccc5)N4C(=O)C(NC(=O)C(C)NC)C3)c2)CCC2CCC(C(=O)NC(c3ccccc3)c3ccccc3)N2C1=O | % | 2.84
NC1CCC(NC2CC2c2ccccc2)CC1 (stereo not given) + CNC(C)C(=O)NC1CN(S(=O)(=O)c2cccc(S(=O)(=O)N3CCC4CCC(C(=O)NC(c5ccccc5)c5ccccc5)N4C(=O)C(NC(=O)C(C)NC)C3)c2)CCC2CCC(C(=O)NC(c3ccccc3)c3ccccc3)N2C1=O | % | 3.1

The molecule CCN1CCN(Cc2ccc(Nc3ncc(F)c(-c4cc(F)c5nc(C)n(C(C)C)c5c4)n3)nc2)CC1 + Cc1c(S(C)(=O)=O)c(-c2cc(F)cc(N3CCN(c4ccc(NS(=O)(=O)c5ccc(NC(CCN6CCC(C(=O)OCCCP(=O)(O)O)CC6)CSc6ccccc6)c(S(=O)(=O)C(F)(F)F)c5)cc4)CC3)c2)c(-c2ccc(Cl)cc2)n1C(C)C on NCI-H196 complex spheroids with HUVEC/MSC, growth % T/C: viability, T/C was 92.2

Cn1ncnc1[C@H]1c2n[nH]c(=O)c3cc(F)cc(c23)N[C@@H]1c1ccc(F)cc1 + CNC(C)C(=O)NC1CN(S(=O)(=O)c2cccc(S(=O)(=O)N3CCC4CCC(C(=O)NC(c5ccccc5)c5ccccc5)N4C(=O)C(NC(=O)C(C)NC)C3)c2)CCC2CCC(C(=O)NC(c3ccccc3)c3ccccc3)N2C1=O tested on NCI-H196 complex spheroids with HUVEC/MSC, growth % T/C gave viability, T/C: 3.37

* * *

test system: NCI-H196 complex spheroids with HUVEC/MSC, growth % T/C; assay: Anticancer human tumor NCI-H196 cell line growth inhibition [Asc]; details: second compound 0.949 µM; first compound 10 µM; stronger effect = lower value;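 note: spheroids exposed to compound for 7 days before measurement; 100% = DMSO vehicle control wells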
Measurement label: viability, T/C (%)
Give a bare numeral; the unit % is implied.

# count of solved cases: 3
Compound | Test value
C#Cc1c(F)ccc2cc(O)cc(-c3ncc4c(N5CC6CCC(C5)N6)nc(OCC56CCCN5CC(F)C6)nc4c3F)c12 (centres undefined) + CCN1C(C(=O)NC23CCC(C(=O)O)(CC2)CC3)C(c2cccc(Cl)c2F)C2(C(=O)Nc3cc(Cl)ccc32)C12CCCCC2 | 103
O=C(c1cc(Cc2n[nH]c(=O)c3ccccc23)ccc1F)N1CCN(C(=O)C2CC2)CC1 + CCN1C(C(=O)NC23CCC(C(=O)O)(CC2)CC3)C(c2cccc(Cl)c2F)C2(C(=O)Nc3cc(Cl)ccc32)C12CCCCC2 | 105
C=C(F)C(=O)N1CCN(c2nc(OCC3CCCN3C)nc3c2CCN(c2cccc4cccc(Cl)c24)C3)CC1CC#N (centres undefined) + CCN1C(C(=O)NC23CCC(C(=O)O)(CC2)CC3)C(c2cccc(Cl)c2F)C2(C(=O)Nc3cc(Cl)ccc32)C12CCCCC2 | 105

// C=CC(=O)N1CCN(c2nc(=O)n(-c3c(C)ccnc3C(C)C)c3nc(-c4c(O)cccc4F)c(F)cc23)C(C)C1 (centres undefined) + CCN1C(C(=O)NC23CCC(C(=O)O)(CC2)CC3)C(c2cccc(Cl)c2F)C2(C(=O)Nc3cc(Cl)ccc32)C12CCCCC2 : viability, T/C value = 110
